system: HEK293; test: Inhibitory activity against beta-amyloid (Abeta) peptide in human HEK293/APP751swe cells; assay type: functional, cell-based
Each entry below carries its recorded pIC50.
Answer as the number alone; pIC50 is minus log10 of concentration in mol/L.

| Molecule | pIC50 |
| --- | --- |
| CC[C@H](C)[C@H](O)C(=O)N[C@@H](CC(C)C)C(=O)N[C@@H](Cc1ccccc1)[C@@H](O)CC(CC(C)C)C(=O)N[C@H](C(=O)NCc1ccncc1)C(C)C (single isomer, unassigned) | 5.43 |
| CC(C[C@H](O)[C@H](Cc1ccccc1)NC(=O)[C@H](CO)NC(=O)[C@@H](O)C(C)C)C(=O)N[C@H](C(=O)NCc1ccncc1)C(C)C (single isomer, unassigned) | 4.70 |
| CC(C[C@H](O)[C@H](Cc1ccccc1)NC(=O)[C@H](C)NC(=O)[C@@H](O)C(C)C)C(=O)N[C@H](C(=O)NCc1ccccc1)C(C)C (single isomer, unassigned) | 5.20 |

Next:
// assay HEK293, entry CCC[C@H](NC(=O)[C@@H](O)C(C)C)C(=O)N[C@@H](Cc1ccccc1)[C@@H](O)CC(C)C(=O)N[C@H](C(=O)NCc1ccncc1)C(C)C (single isomer, unassigned) , pIC50 value = 4.52

----------
target: Beta-secretase 1 (Homo sapiens, UniProt P56817); assay: In vitro inhibitory activity against Beta-secretase 1 in human HEK293 cells; assay type: cell-based
Sequence (P56817 whole entry): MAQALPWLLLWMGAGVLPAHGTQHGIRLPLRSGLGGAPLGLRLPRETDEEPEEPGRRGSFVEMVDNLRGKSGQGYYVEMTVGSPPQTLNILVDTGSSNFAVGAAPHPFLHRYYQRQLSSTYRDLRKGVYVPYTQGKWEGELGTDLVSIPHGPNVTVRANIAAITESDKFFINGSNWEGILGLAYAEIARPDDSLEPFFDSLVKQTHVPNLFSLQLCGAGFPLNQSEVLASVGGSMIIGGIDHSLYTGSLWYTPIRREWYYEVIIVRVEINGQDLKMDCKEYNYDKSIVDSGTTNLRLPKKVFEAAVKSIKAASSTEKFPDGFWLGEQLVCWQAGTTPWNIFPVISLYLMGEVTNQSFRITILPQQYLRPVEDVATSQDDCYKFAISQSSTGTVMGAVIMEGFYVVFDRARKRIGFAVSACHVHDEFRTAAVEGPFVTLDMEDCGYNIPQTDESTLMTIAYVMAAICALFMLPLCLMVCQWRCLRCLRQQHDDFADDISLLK
We'd kindly ask you to apply these IC50 classes: bin 1 = under 70 nM, bin 2 = from 70 nM up to 200 nM, bin 3 = 200 nM and over

Reference set (4 entries):
| Molecule | Cat |
| --- | --- |
| CC[C@H](C)[C@H](O)C(=O)N[C@@H](CC(C)C)C(=O)N[C@@H](Cc1ccccc1)[C@@H](O)CC(CC(C)C)C(=O)N[C@H](C(=O)NCc1ccncc1)C(C)C (single isomer, unassigned) | bin 2 |
| CC[C@H](C)[C@H](O)C(=O)N[C@@H](CCC(F)F)C(=O)N[C@@H](Cc1ccccc1)[C@@H](O)CC(CCC(F)F)C(=O)N[C@H](C(=O)NCc1ccncc1)C(C)C (single isomer, unassigned) | bin 1 |
| CCC(C[C@H](O)[C@H](Cc1ccccc1)NC(=O)[C@H](C)NC(=O)[C@@H](O)C(C)C)C(=O)N[C@H](C(=O)N[C@H](C)c1ccccc1)C(C)C (single isomer, unassigned) | bin 2 |
| CSCC[C@H](NC(=O)[C@@H](O)C(C)C)C(=O)N[C@@H](Cc1ccccc1)[C@@H](O)CC(C)C(=O)N[C@H](C(=O)NCc1ccncc1)C(C)C (single isomer, unassigned) | bin 3 |

Category of CC(C)CC(=O)N[C@@H](C)C(=O)N[C@@H](Cc1ccccc1)[C@@H](O)CC(C)C(=O)N[C@H](C(=O)NCc1ccncc1)C(C)C (single isomer, unassigned) :
bin 3

Record CC[C@H](C)[C@H](O)C(=O)N[C@@H](C)C(=O)N[C@@H](Cc1ccccc1)[C@@H](O)CC(C)C(=O)N[C@H](C(=O)NCc1ccncc1)C(C)C (single isomer, unassigned) — which class?
bin 1

Lab note: sort CCC(C[C@H](O)[C@H](Cc1ccccc1)NC(=O)[C@H](C)NC(=O)[C@@H](O)C(C)C)C(=O)N[C@H](C(=O)N[C@@H](C)c1ccccc1)C(C)C (single isomer, unassigned) into the matching IC50 band.
bin 1

Please let me know in which category the item CC(C[C@H](O)[C@H](Cc1ccccc1)NC(=O)[C@H](C)NC(=O)[C@@H](N)C(C)C)C(=O)NC(C(=O)NCc1ccncc1)C(C)C (single isomer, unassigned) belongs.
bin 2

Where do these numbers come from? They come from ChEMBL document CHEMBL1146699.
